These compounds were tested on Alpha-2C adrenergic receptor (Homo sapiens); Ki is the recorded read-out.
Sequence (P18825 whole entry): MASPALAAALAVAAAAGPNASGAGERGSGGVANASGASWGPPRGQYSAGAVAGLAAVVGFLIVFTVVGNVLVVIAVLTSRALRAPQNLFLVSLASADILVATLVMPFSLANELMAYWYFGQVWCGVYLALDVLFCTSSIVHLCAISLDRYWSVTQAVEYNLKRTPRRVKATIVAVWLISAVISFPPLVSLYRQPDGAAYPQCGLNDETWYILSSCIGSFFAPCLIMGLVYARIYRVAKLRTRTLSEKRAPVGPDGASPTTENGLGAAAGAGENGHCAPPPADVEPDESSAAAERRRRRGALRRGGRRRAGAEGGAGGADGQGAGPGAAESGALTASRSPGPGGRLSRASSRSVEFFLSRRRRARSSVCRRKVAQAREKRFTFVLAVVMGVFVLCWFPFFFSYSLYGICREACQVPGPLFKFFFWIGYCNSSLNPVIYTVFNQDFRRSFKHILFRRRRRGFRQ
Property Name: Ki (nM)

1. CC1CN=C(Nc2ccc3nccnc3c2Br)N1 (configuration not stated) : 646
2. Brc1c(NC2=NCCO2)ccc2nccnc12 : 49000
3. Clc1c(NC2=NCCN2)ccc2nccnc12 : 195
4. Cc1c(NC2=NCCN2)ccc2nccnc12 : 28.2
5. Brc1c(NC2=N[C@@H]3CCCC[C@@H]3N2)ccc2nccnc12 : 11500
6. c1cnc2cc(NC3=NCCN3)ccc2n1 : 1410
7. Cc1cnc2c(Br)c(NC3=NCCN3)ccc2n1 : 646

###

Target: Alpha-2A adrenergic receptor (Homo sapiens)
Sequence (whole entry): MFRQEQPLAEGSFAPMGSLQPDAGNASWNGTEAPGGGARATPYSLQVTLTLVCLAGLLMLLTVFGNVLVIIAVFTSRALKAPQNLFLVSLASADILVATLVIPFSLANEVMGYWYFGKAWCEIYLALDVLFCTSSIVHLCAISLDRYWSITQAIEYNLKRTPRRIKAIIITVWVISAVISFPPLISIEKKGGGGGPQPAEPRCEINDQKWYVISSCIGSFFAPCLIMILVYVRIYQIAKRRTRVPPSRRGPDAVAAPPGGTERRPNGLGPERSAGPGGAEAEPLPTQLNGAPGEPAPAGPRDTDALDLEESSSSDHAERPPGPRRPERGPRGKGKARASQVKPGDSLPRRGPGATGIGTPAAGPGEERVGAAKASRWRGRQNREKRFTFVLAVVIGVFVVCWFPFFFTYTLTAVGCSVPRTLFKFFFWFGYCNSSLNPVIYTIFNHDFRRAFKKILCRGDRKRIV
Experiment: Inhibitory activity against Alpha-2A adrenergic receptor relative to norepinephrine
Property: Intrinsic activity; scope: individual compounds
Property Name: Intrinsic activity

1) Brc1c(NC2=NCCS2)ccc2nccnc12 : 0.9
2) Cc1c(NC2=NCCN2)ccc2nccnc12 : 1
3) Brc1c(NC2=NCCN2)ccc2nccnc12 [BRIMONIDINE] : 1
4) Clc1c(NC2=NCCN2)ccc2nccnc12 : 1
5) Ic1c(NC2=NCCN2)ccc2nccnc12 : 1
6) Brc1c(NC2=NCCN2)ccc2c1NCCN2 : 1
7) Cc1cnc2c(Br)c(NC3=NCCN3)ccc2n1 : 1
8) CC1CN=C(Nc2ccc3nccnc3c2Br)N1 (stereo not drawn) : 0.8
